- target.system: FAAH (Rattus norvegicus)
- Sequence (P97612 whole entry): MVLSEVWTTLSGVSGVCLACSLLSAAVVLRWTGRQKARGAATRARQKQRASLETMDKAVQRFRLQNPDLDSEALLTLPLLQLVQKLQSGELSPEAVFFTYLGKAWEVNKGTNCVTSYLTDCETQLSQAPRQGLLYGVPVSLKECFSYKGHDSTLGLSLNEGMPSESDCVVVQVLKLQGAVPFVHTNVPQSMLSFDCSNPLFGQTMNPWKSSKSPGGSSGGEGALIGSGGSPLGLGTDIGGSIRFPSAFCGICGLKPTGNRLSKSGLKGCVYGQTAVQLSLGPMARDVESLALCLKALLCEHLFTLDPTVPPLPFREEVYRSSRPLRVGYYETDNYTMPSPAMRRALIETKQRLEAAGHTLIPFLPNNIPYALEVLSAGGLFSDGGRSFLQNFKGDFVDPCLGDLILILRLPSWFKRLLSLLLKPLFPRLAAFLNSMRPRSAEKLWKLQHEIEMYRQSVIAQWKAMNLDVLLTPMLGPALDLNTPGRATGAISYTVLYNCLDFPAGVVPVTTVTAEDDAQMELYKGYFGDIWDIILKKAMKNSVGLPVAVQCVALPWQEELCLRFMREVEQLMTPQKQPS
- experiment: biochemical
- Type: biochemical
- Parameters: from tissue; host or cells: rat brain (membrane fraction of homogenate; Wistar rats)
- cond: IC50 (nM) ± S.E.M.
property.name: IC50 (nM)
The answer is to be given in nM; state only the numeric part.

Nc1cccc(-c2cccc(OC(=O)NC3CCCCC3)c2)c1 = 64.6

Query (compound): O=C(NC1CCCCC1)Oc1cccc(-c2cccc(C(F)(F)F)c2)c1 ; field requested: IC50 146

Query (compound): NCc1cccc(-c2cccc(OC(=O)NC3CCCCC3)c2)c1 ; field requested: IC50 21200

Query (compound): Nc1ccc(-c2cccc(OC(=O)NC3CCCCC3)c2)cc1 ; field requested: IC50 360
